# System: Pseudomonas aeruginosa
# test_summary: Tested in vivo against Pseudomonas aeruginosa E-2 in mice after peroral dose of drug with 0.5% sodium carboxy methyl cellulose
# Type: functional
# condition_summary: po
readout_type: ED50 (mg/kg)
Numeric only. Scale: mg/kg

A selection of reference data follows.
CCn1cc(C(=O)O)c(=O)c2cc(F)c(N3CCNCC3)cc21 [NORFLOXACIN] = 107
O=C(O)c1cn(C2CC2)c2c(F)c(N3CCN(O)CC3)c(F)cc2c1=O = 4.81
CC1CN(c2c(F)cc3c(=O)c(C(=O)O)cn(C4CC4)c3c2F)CC(C)N1O (centres undefined) = 35.4

Form field, ED50 with Pseudomonas aeruginosa, item O=C(O)c1cn(C2CC2)c2cc(N3CCNCC3)c(F)cc2c1=O [CIPROFLOXACIN] : 30.8
